Consider the following binders; for each one, report its % binding of the fluorescently labeled mAb (IgG pre-incubation = 100).
Study System: T1, human CD103 (integrin Alpha-E) / human integrin Beta-7 heterodimer on cells (human, UniProt P38570 19-1179; P26010 20-798)
T1 construct: the assay field tells which cells; also called hCD103/hBeta7; CHO.K1-hCD103/hBeta7
T1 sequence (P38570 19-1179 limits assumed, chain 1 of 2): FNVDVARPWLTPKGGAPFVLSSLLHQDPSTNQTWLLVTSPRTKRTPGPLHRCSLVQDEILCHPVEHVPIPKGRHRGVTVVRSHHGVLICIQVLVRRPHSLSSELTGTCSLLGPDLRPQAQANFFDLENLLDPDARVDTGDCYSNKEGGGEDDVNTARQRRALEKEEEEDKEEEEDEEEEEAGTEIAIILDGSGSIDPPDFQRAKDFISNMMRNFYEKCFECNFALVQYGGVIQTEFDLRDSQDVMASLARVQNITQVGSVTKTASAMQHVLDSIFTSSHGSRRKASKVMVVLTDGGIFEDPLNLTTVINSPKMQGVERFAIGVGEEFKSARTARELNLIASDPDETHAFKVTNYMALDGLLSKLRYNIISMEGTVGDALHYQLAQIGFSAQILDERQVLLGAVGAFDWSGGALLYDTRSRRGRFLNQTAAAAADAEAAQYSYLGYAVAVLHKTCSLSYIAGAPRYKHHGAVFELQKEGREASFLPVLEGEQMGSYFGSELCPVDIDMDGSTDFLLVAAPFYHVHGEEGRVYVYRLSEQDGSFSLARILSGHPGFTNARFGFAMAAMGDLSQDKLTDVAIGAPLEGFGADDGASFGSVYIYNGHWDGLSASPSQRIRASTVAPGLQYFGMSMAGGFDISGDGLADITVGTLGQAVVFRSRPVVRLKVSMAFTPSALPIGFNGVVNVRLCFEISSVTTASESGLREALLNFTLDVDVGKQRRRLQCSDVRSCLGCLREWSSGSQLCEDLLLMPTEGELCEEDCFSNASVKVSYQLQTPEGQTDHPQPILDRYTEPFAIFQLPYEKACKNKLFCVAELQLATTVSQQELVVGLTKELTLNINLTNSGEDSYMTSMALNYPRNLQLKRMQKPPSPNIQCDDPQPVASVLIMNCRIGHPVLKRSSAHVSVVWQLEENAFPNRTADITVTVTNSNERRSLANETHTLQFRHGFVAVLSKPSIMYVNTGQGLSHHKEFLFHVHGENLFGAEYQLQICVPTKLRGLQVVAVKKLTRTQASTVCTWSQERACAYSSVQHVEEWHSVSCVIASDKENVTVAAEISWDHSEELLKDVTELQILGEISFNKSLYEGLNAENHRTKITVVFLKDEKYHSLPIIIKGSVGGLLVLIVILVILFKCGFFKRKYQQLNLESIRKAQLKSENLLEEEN
T1 sequence (P26010 20-798 limits assumed, chain 2 of 2): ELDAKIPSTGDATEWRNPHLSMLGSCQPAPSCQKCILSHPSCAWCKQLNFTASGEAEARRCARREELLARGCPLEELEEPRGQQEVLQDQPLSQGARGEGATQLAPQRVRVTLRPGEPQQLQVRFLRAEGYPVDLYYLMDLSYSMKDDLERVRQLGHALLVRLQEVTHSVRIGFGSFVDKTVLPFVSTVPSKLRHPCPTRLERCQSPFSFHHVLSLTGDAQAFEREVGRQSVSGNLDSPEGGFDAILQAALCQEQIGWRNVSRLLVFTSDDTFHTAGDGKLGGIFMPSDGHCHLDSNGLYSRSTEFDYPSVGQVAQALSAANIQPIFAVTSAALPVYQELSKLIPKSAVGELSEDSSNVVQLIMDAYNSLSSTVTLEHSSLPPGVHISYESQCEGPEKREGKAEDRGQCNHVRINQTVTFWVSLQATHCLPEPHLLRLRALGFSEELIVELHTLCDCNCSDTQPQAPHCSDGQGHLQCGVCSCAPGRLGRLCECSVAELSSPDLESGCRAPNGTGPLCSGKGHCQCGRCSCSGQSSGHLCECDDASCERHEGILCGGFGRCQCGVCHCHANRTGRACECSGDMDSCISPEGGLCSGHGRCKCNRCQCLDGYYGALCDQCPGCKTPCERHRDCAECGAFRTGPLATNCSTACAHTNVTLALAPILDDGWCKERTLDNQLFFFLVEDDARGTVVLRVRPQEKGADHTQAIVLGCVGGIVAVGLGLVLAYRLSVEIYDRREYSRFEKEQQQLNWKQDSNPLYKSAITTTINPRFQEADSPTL
Test Method Notes: flow cytometry competition on CD103+CD8+ T cells; pre-incubation with unlabeled MCA708 (f4); table n=2

Tell me measured % binding of the fluorescently labeled mAb (IgG pre-incubation = 100) for hCD103.05A (antibody, mouse IgG1, V domains shown, Also tested labelled with AF647, conjugated with Df and labelled with 89Zr; these are written under this molecule; also called clone 05A; hCD103.05 mAb) VH: EVQLQQSGPELEKPGASAKISCKASGYSFTGYNMNWVKQSNGKSLEWIGNIDPYYGGTSYNQKFKGKATLTVDKSSSTAYMQLKSLTSEDSAVYYCARSFYGYDAGSPYNYAMDYWGQGTPVTVSP VL: DIVMTQSHKFMSTSVGDRVSITCKASQDVGTFVAWYQQKPGQSPKLLIYWASTRHTGVPDRFTGSGSGTDFTLTISNVQSEDLADYFCHQYSSYPYTFGGGTQLEIK please.
89.7%

Tell me measured % binding of the fluorescently labeled mAb (IgG pre-incubation = 100) for hCD103.06A (antibody, mouse IgG1, V domains shown, also called clone 06A; hCD103.06 mAb) VH: QVQLQQPGSELVRPGASVKLSCKASGYTFTSYWMHWVKQRHGQGLEWIGNIYPGSGSTNYDEKFKSKGTLTVDTSSSTAYMHLSSLTSEDSAVYYCTRGVYDNPYYFDYWGQGTTLTVSS VL: DIQMTQSSSNLSVSLGGRVTITCKASDHINNWLAWYQQKPGNAPRVLISGATSLETGVPSRFSGSGSGKDYTLSITSLQTEDVATYYCQQYWSIPLTFGAGTKLELK please.
1%

Tell me measured % binding of the fluorescently labeled mAb (IgG pre-incubation = 100) for hCD103.07A (antibody, mouse IgG1, V domains shown, also called clone 07A) VH: EVQLQESGPSLVKPSQTLSLTCSVTGDSITSGYWNWIRKFPGNKLEYMGYITYSGSTYYNPSLKSRISITRDTSKNQYYLQLNSVTTEDTATYYCARNYYGSSSMDYWGQGTSVTVSS VL: DIVMTQSQKFMSTSVADRVSVTCKASQNVGSDVAWYQQKPGQSPKSLIYSASYRYSGVPDRFTGSGSGTDFTLTISNVQSEDLAEYFCQQYNSYPSTFGGGTKLEIK please.
92.5%

Tell me measured % binding of the fluorescently labeled mAb (IgG pre-incubation = 100) for hCD103.01A (antibody, V domains shown, Also tested labelled with AF647, conjugated with Df and labelled with 89Zr; these are written under this molecule; also called clone 01A; hCD103.01 mAb) VH: EVQLQESGPSLVKPSQTLSLTCSVTGDSITSGYWNWIRKFPGNKLEYMGYITYSGSTYYNPSLKSRISITRDTSKNQYYLQLNSVTTEDTATYYCTRHYYGSDAMDYWGQGTSVTVSS VL: DIVMTQSHKFMSTSVGDRVSITCKASQDVSIAVAWYQQRPGQSPKLLIYSASYRYTGVPDRFTGSGSGTDFTFTISSVQAEDLAVYYCQQHYSTPWTFGGGTKLEIK please.
92.3%
